# Tested on: Rattus norvegicus
# Test name: Antiinflammatory activity in rats by using reverse passive Arthus reaction (RPAR) assay at dose level of 50 mg/Kg by peroral administration
# Type: functional
Reported Inhibitory response values for the following compounds.
Put your answer as a value accompanied by its unit after it.

Past entries and their recorded results:
{"Compound": "Cl.NC1CCCc2ccccc2C1O (stereo in doubt; 4b)", "Inhibitory response": "98%"}
{"Compound": "NC1CCCc2ccc(Cl)cc2C1O (stereo in doubt; 4aa)", "Inhibitory response": "44%"}
{"Compound": "O=C1NC2CCCc3cc(Cl)ccc3C2O1 (stereo in doubt; 20d)", "Inhibitory response": "18%"}
{"Compound": "CC(C)Sc1ccc2c(c1)C(O)C(N)CCC2 (stereo unspecified)", "Inhibitory response": "39%"}

q: Check the records and state Inhibitory response for Cl.N[C@@H]1CSCc2ccccc2[C@@H]1O
a: 2%

q: Check the records and state Inhibitory response for COc1ccc2c(c1)C(O)C(N)CCC2 (stereo in doubt; 4j)
a: 13%

q: Check the records and state Inhibitory response for O=C1NC2CCCc3ccc(Cl)cc3C2O1 (stereo in doubt; 19i)
a: 9%

q: Check the records and state Inhibitory response for NC1CCCc2cc(Cl)ccc2C1O (stereo unspecified)
a: 94%

q: Check the records and state Inhibitory response for COc1ccc2c(c1)C(O)C(N)CCC2 (stereo in doubt; 4i)
a: 98%

q: Check the records and state Inhibitory response for NC1CCCc2ccc(Cl)cc2C1O (stereo in doubt; 4z)
a: 94%

q: Check the records and state Inhibitory response for NC[C@@H]1c2ccccc2CCC[C@H]1O
a: 0%

* * *

Reported Inhibitory response values for the following molecules.
# Test system: Rattus norvegicus
# Test name: Antiinflammatory activity in rats by using reverse passive Arthus reaction (RPAR) assay at dose level of 50 mg/Kg by peroral administration
# Format: functional
Give the value, in units of %, as a plain number.

Past entries and their recorded results:
{"Molecule": "Cl.NC1CCCc2ccc([N+](=O)[O-])cc2C1O (stereo unspecified)", "Inhibitory response, %": 100}
{"Molecule": "O=C1NC2CCCc3cc(Cl)ccc3C2O1 (stereo in doubt; 19e)", "Inhibitory response, %": 9}
{"Molecule": "CC(C)Oc1ccc2c(c1)C(O)C(N)CCC2 (stereo in doubt; 4m)", "Inhibitory response, %": 77}
{"Molecule": "COc1ccc2c(c1)C1OC(=O)NC1CCC2 (stereo in doubt; 20f)", "Inhibitory response, %": 24}
{"Molecule": "O=C1NC2CCCc3ccccc3C2O1 (stereo in doubt; 19a)", "Inhibitory response, %": 77}

q: Check the records and state Inhibitory response for CC(C)(C)C(=O)OCOc1ccc2c(c1)C(O)C(N)CCC2 (stereo in doubt; 4r)
a: 3

q: Check the records and state Inhibitory response for Cc1ccc2c(c1)CCCC(N)C2O (stereo unspecified)
a: 93

q: Check the records and state Inhibitory response for O=C1NC2CCCc3ccccc3C2O1 (stereo in doubt; 19b)
a: 24

q: Check the records and state Inhibitory response for O=C1NC2CCCc3cc(F)ccc3C2O1 (stereo in doubt; 19f)
a: 39

q: Check the records and state Inhibitory response for COc1cc2c(cc1[S+](C)[O-])C(O)C(N)CCC2 (stereo in doubt; 4hh)
a: 8

q: Check the records and state Inhibitory response for COc1ccc2c(c1)CCCC1NC(=O)OC21 (stereo unspecified)
a: 0

* * *

# Test system: Rattus norvegicus
# Test name: Antiinflammatory activity in rats by using reverse passive Arthus reaction (RPAR) assay at dose level of 50 mg/Kg by peroral administration
# Format: functional
Assay readout: Inhibitory response (%)
Give the value, in units of %, as a plain number.

Past entries and their recorded results:
{"Compound": "COc1ccc2c(c1)CCCC(N)C2O (stereo not drawn)", "Assay readout": "Inhibitory response", "Reading unit": "%", "Observed value": 80}
{"Compound": "Cl.NC1CCCc2ccccc2C1O (stereo in doubt; 4c)", "Assay readout": "Inhibitory response", "Reading unit": "%", "Observed value": 11}

Note: attention shifts to another entry.
q: Check the records and state Inhibitory response for CS(=O)(=O)c1ccc2c(c1)C(O)C(N)CCC2 (stereo not drawn)
a: 5
